Test system: analgesic activity of morphine
experimentNotes: Tail Flick Test: increase in the analgesic effect of morphine
Type: in vivo, rats
runParameters: 90'; compound 10 mg/kg i.p. + morphine 2 mg/kg (row Morphine: alone); ± S.E.
Experimental: Increase in the analgesic effect of analgesic-narcotic drugs in rats in the Tail Flick Test The method is that described by Harris et al. (J. Pharmacol. Exp. Ther. 143 (1964) 141-148). Male rats are used which have a weight of about 150-200 g and which have not been fasting. A point is chosen on the tail and this is irradiated by a heat source (75° C.) and the time (in seconds) for which the animal remains without moving its tail is measured. […]
percentage variation in the latency of the pain sensation, 90' for assorted compounds
A number alone suffices; assume %.

Answered cases to consult:
percentage variation in the latency of the pain sensation, 90' lookup needed for CCCCCCc1ccc(C(=O)N[C@@H](Cc2c[nH]c3ccccc23)C(=O)O)cc1 [Compound 26] , thanks. 84.5

percentage variation in the latency of the pain sensation, 90' lookup needed for O=C(N[C@@H](Cc1c[nH]c2ccccc12)C(=O)O)OC(c1ccccc1)c1ccccc1 [Compound 33] , thanks. 58.1

Continuing:
percentage variation in the latency of the pain sensation, 90' lookup needed for O=C(N[C@@H](Cc1c[nH]c2ccccc12)C(=O)O)c1cccc(Cl)c1 [Compound 16] , thanks. 9.7

percentage variation in the latency of the pain sensation, 90' lookup needed for CCCc1ccc(C(=O)N[C@@H](Cc2c[nH]c3ccccc23)C(=O)O)cc1 [Compound 22] , thanks. 24.5
